# target-of-assay: CAMK2G (human) (UniProt Q13555)
# Sequence (Q13555 whole entry, looked up): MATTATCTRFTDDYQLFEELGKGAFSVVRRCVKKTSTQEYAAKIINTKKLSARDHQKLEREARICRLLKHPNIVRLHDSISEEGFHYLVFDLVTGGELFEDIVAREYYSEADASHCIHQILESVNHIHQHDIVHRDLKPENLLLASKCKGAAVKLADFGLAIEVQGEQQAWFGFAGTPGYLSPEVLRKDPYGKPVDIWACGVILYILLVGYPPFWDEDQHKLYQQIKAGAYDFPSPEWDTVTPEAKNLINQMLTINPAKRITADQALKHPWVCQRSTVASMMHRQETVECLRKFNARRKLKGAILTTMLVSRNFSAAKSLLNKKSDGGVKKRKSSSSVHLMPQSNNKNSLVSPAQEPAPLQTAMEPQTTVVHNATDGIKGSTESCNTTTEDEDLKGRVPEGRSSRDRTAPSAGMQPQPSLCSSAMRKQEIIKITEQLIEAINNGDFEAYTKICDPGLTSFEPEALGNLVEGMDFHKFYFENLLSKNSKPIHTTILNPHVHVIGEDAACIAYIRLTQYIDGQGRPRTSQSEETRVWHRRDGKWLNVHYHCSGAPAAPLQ
# test-summary: radiometric filter-binding kinase assay, Kinase HotSpot
# stated-conditions: compound 0.5 µM; ATP 10 µM
Below, each entry is listed alongside its reported residual activity.
Express your answer in %, writing the number without its unit.

compound	measurement-label	reported-measurement
CC(C)[C@H](CO)Nc1nc(Nc2cccc(Cl)c2)c2ncn(C(C)C)c2n1	residual activity	96.9
O=C(NC(NC(=S)Nc1ccc(F)c([N+](=O)[O-])c1)C(Cl)(Cl)Cl)C(c1ccccc1)c1ccccc1 (configuration not stated)	residual activity	107
Oc1ccc(-c2nc(-c3ccc(F)cc3)c(-c3ccncc3)[nH]2)cc1	residual activity	101

-- ask Name the reported residual activity value associated with the compound "Nc1nc(Nc2ccc(S(N)(=O)=O)cc2)nn1C(=S)Nc1c(F)cccc1F"
-- reply 15.6

-- ask Name the reported residual activity value associated with the compound "COc1cc2ncnc(Nc3ccc(F)c(Cl)c3)c2cc1OCCCN1CCOCC1"
-- reply 128

-- ask Name the reported residual activity value associated with the compound "Nc1nc(Nc2ccc(S(N)(=O)=O)cc2)nn1C(=O)c1c(F)cccc1F"
-- reply 104
